test: Body weight and food intake in C57BL/6 mice, fusion protein conjugates, 30 nmol/kg daily 10 days; assay type: in vivo
value.kind: Body weight reduction at 30 nmol/kg (% reduction compared to vehicle)(Day11) (%)
Give just the numeric value; % need not be written.

MLC013: fusion polypeptide SEQ ID NO: 260 conjugated with Moiety A at 1K of Linker (conjugate, Moiety A conjugated at linker K1) HGEGTFTSDVSSYLEEQAAREFIAWLVRGGGKQEPGAQPGQEPGAQPGQEPGAQPGQEPGAQPGQEPGAQPGQEPGAQPGAQPGAQPGAQPGAQPGAQPGAQPGAQPGAQPARQGDHCPLGPGRCCRLHTVRASLEDLGWADWVLSPREVQVTMCIGACPSQFRAANLHAQIKTSLHRLRPDTVPAPCCVPASYNPMVLIQRTDTGVSLQTYDDLLARDCHCI = 21.4

Kindly review the next molecule as well.
Prompt line: Find the measured Body weight reduction at 30 nmol/kg (% reduction compared to vehicle)(Day11) of MLC085: fusion polypeptide SEQ ID NO: 377 conjugated with Moiety B at 37C of Linker (conjugate, Moiety B conjugated at linker Cys37) HGEGTFTSDVSSYLEEQAAKEFIAWLVRGGGGQEPGAQPGQEPGAQPGQEPGAQPGQEPGAQPGQEPCQAPGQEPGAQPGAQPGAQPGAQPGAQPGAQPGAQPGAQPGAQPARQGDHCPLGPGRCCRLHTVRASLEDLGWADWVLSPREVQVTMCIGACPSQFRAANLHAQIKTSLHRLKPDTVPAPCCVPASYNPMVLIQKTDTGVSLQTYDDLLAKDCHCI and report it.
Response line: 23.8
